Literature compilation of IC50 measurements on Platelet-derived growth factor receptor beta (Homo sapiens).
Endpoint Name: IC50

CCn1cnc2ncc(C(=O)Nc3cccc([C@H](C)Nc4cnc5cnn(C)c5n4)c3)cc21 = < 300 nM
C[C@H](Nc1cnc2cnn(C)c2n1)c1cccc(NC(=O)c2ccc3ncn(C)c3c2)c1 = < 300 nM
CCn1cc2ncc(N[C@@H](C)c3cccc(NC(=O)c4ccc(CN5CC(O)C5)c(C)c4)c3)nc2n1 = 300 to 1000 nM
Cc1ccc(C(=O)N[C@H]2CCCC[C@@H]2O)cc1CN(C)c1cncc(-c2ccccc2)c1 = 24 nM
CN(C(=O)Nc1ccc(Cl)c(C(F)(F)F)c1)c1ccc(Oc2ccnc(-c3nnco3)c2)cc1 = ≤ 10000 nM
CCn1cc2ncc(N[C@@H](C)c3cccc(NC(=O)Cc4cccc(F)c4F)c3)nc2n1 = 300 to 1000 nM
COC(=O)CNCCCNC(=O)c1cc2nccc(Oc3ccc(NC(=O)Nc4cc(C)ccc4F)cc3)c2s1 = 11 nM
Cn1cc(-c2cc(Oc3cccc(NC(=O)c4ccc5ccccc5c4)c3)ccn2)cn1 = > 10000 nM
CCn1cc2ncc(N[C@@H](C)c3cccc(NC(=O)c4cnc(C(N)=O)s4)c3)nc2n1 = < 300 nM
CCn1cc2ncc(N[C@@H](C)c3cc(NC(=O)c4ccc(CN5CCOCC5)c(C)c4)ccc3C)nc2n1 = < 300 nM
Cc1ccc(C(=O)N[C@H]2CCCC[C@@H]2O)cc1NCc1ccc(-n2ccnn2)nc1 = 330 nM
O=C(Nc1cccc(Oc2cc(-c3ncco3)ncn2)c1)Nc1ccc(Cl)c(C(F)(F)F)c1 = ≤ 10000 nM
CCn1cc2ncc(N[C@@H](C)c3cc(NC(=O)Cc4cccc(C)c4)ccc3F)nc2n1 = < 300 nM
CCn1cc2ncc(N[C@@H](C)c3cccc(NC(=O)Nc4ccc(OC(F)(F)F)nc4)c3)nc2n1 = < 300 nM
Cn1cc(-c2cc(Oc3cc(F)c(NC(=O)NC(=O)Cc4ccc(F)cc4)cc3F)ccn2)cn1 = < 10000 nM
CCn1cc2ncc(N[C@@H](C)c3cc(NC(=O)c4ccc(CN5CCCC5)c(C)c4)ccc3C)nc2n1 = < 300 nM
CCn1cc2ncc(N[C@@H](C)c3cccc(NC(=O)c4ccc(CN5CCCC5)c(C)c4)c3)nc2n1 = < 300 nM
Cc1cncc(C(=O)Nc2cccc([C@H](C)Nc3cnc4cc(C)sc4c3)c2)c1 = < 300 nM
